Values from PubChem BioAssay AID2060332

As shown below, each of these compounds has a reported pIC50 value.
tested on: LG0567-F671-PDC multi-cell spheroid viability; assay: Anticancer human tumor LG0567-F671-PDC patient-derived lung adenocarcinoma cell line growth inhibition [IpAb]; details: curve of first compound; second compound 0.01 µM;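 note: viability read after 7 days of drug exposure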
Note: pIC50 values are expressed as the negative base-10 logarithm of concentration in M.

Find the recorded pIC50 belonging to CC(C)(C)c1cnc(CSc2cnc(NC(=O)C3CCNCC3)s2)o1 + CCN1CCN(Cc2ccc(Nc3ncc(F)c(-c4cc(F)c5nc(C)n(C(C)C)c5c4)n3)nc2)CC1 and report it.
6.82

Others:
Look up pIC50 for this compound: Cn1ncnc1[C@H]1c2n[nH]c(=O)c3cc(F)cc(c23)N[C@@H]1c1ccc(F)cc1 + CCN1CCN(Cc2ccc(Nc3ncc(F)c(-c4cc(F)c5nc(C)n(C(C)C)c5c4)n3)nc2)CC1
7.14
